Test system: RS4;11 cells
assaySummary: MTT cell viability (anti-proliferation) assay
Type: cell-based, human
details: Homo sapiens, RS4-11; MTT assay, 48 h incubation; read-out: IC50, inhibition of growth/proliferation of RS4;11 cells
pIC50: −log10 of the molar value.
measurementName: pIC50

P = CCOc1cc(C(C)(C)C)ccc1C1=N[C@@H](c2ccc(Cl)cc2)[C@@H](c2ccc(Cl)cc2)N1C(=O)N1CCN(CC#Cc2cccc3c2CN(C2CCC(=O)NC2=O)C3=O)CC1 (some centres unmarked)
Q = CCOc1cc(C(C)(C)C)ccc1C1=NC(c2ccc(Cl)cc2)C(c2ccc(Cl)cc2)N1C(=O)N1CCN(CC#Cc2cccc3c2CN(C2CCC(=O)NC2=O)C3=O)CC1 (racemic)
Lower value for measured pIC50? Options: P , Q Mark your answer with the label of the selected entry.
Q
(Q: 8.14, P: 8.49)
